All figures here come from PubChem BioAssay (Tox21).

# TARGET_ENTITY: Nuclear receptor subfamily 1 group I member 2 (Homo sapiens)
# ASSAY_OVERVIEW: Human pregnane X receptor (PXR) small molecule agonists, qHTS assay (AID 1346982); also: nearly all actives have a fitted effect of over 35% in size; as to activation: % is scaled to controls: 0 for no effect and ±100 for the full control effect
# RUN_PARAMETERS: PXR-Luc HepG2, CYP3A4 luciferase reporter, 24 h; series mostly up to 92.4 µM
Results filed as inconclusive are left out. The source made the active and inactive calls. Calls follow the shape of the dose curve; as a rule, active = well fitted activation curve with a large enough effect in the repeat runs; inconclusive = weak or mixed curves; inactive = no such curve, though single readings can be large or run the other way.
Use one of these outcomes when replying: True = active, False = inactive

Short answer needed: outcome of this test for `CO[Si](CCCNCCC[Si](OC)(OC)OC)(OC)OC` ?
False

What call does the record list for `CSc1nc(NC2CC2)nc(NC(C)(C)C)n1` ?
True

What call does the record list for `CC(C)(O)Cc1ccccc1` ?
False

// outcome(item) with item = `CN(C)C(=O)Nc1ccccc1`
False

# fetch the recorded call for CCC(C(=O)NC(N)=O)c1ccccc1 (stereo not drawn) here
False

# fetch the recorded call for OCC(O)[C@@H](O)[C@H](O)[C@H](O)CO[C@H]1O[C@H](CO)[C@@H](O)[C@H](O)[C@H]1O (stereo partly drawn) here
False

Hello, I am checking results. What call was entered for `Cc1ccccc1Br` ?
False

What is the recorded call for this compound in the test? CN1[C@@H]2CC[C@H]1CC(NC(=O)n1c(=O)[nH]c3ccccc31)C2 (stereo partly drawn)
False

Dear colleague, could you share the recorded outcome for `O=[N+]([O-])c1ccc(Oc2ccc([N+](=O)[O-])cc2)cc1` when you have a moment?
False

Which outcome did this test record for the compound `Oc1cc(O)c2c(c1)O[C@H](c1ccc(O)c(O)c1)[C@H](O)C2` ?
False

Please let me know the test result on file for `O=S(=O)(O)c1ccccc1O` .
False

Assay outcome for NS(=O)(=O)c1cc2c(cc1C(F)(F)F)NC(Cc1ccccc1)NS2(=O)=O (stereo not drawn) : what was it?
False

Given C=C(C)C(=O)OCCC(C)OC(=O)C(=C)C (stereo not drawn) , state the outcome it received in this test.
False

Which outcome did this test record for the compound `NC(=O)Nc1nc2ccccc2[nH]1` ?
False

Per the records of this test, what outcome belongs to `C=C(C)C(=O)NCCC[N+](C)(C)C` ?
False

What is the recorded call for this compound in the test? `CC(C)COC(=O)c1ccccc1O`
False

What did the test return for `Cn1ccc2cc3c(cc21)CCN3C(=O)Nc1cccnc1` ?
True

Recorded test outcome, item `CCCCc1ccc2cccc(S(=O)(=O)O)c2c1`
False

// param item: `CCN(CC)C(=O)c1ccc(O)c(OC)c1` ; yields the recorded call
False

// return assay outcome for `NCCNC(=O)c1ccc(Cl)cn1`
False

Tell me the assay call for `COc1ccc(N=[N+]([O-])c2ccc(OC)cc2)cc1` please.
True

Which outcome did this test record for the compound `CC(C)(C)N(CCO)CCO` ?
True

Lab log entry: `CC(C)CCCCCCN` — outcome as called in the assay?
False

I'd appreciate the recorded outcome for `CC(=O)CCc1ccc(O)cc1` from this test.
False

Record request — test call for Cc1nccn1CC1CCc2c(c3ccccc3n2C)C1=O (stereo not drawn)
False

// return assay outcome for `COC(=O)c1ccc(C(=O)OC)c(C(=O)OC)c1`
False

Short answer needed: outcome of this test for `O=C(O)/C=C/c1ccc(/C=C/C(=O)O)cc1` ?
False

Call for entry `Nc1cc(N)cc(C(=O)O)c1` :
True

====

# ASSAY_OVERVIEW: qHTS assay to test for compound auto fluorescence at 460 nm (blue) in HEK293 cells (AID 720678); also: % is scaled to controls: 0 for no effect and ±100 for the full control effect
# RUN_PARAMETERS: blue autofluorescence 405/460 nm; series mostly up to 91.3 µM
The source made the active and inactive calls. Calls come from the whole dose curve; as a rule, active = well fitted curve in the direction sought with a large enough effect in the repeat runs; inconclusive = weak or mixed curves; inactive = flat fitted curve, though single readings scatter.
READOUT_TYPE: fluorescence, % of triamterene

Completed entries (count: 6):
Nc1nc(F)nc2c1ncn2[C@@H]1O[C@H](CO)[C@@H](O)[C@@H]1O :: inactive
C[C@H](O)C(=O)Nc1c(I)c(C(=O)NC(CO)CO)c(I)c(C(=O)NC(CO)CO)c1I :: -0.0154% [at 18.6 µM] (inactive)
C=C(C)C(=O)NCCC[N+](C)(C)C :: inactive
CC(C)(C)N(CCO)CCO :: inactive
NC(N)=NS(=O)(=O)c1ccc(N)cc1 :: 0.195% [at 18.6 µM] (inactive)
CCCOc1ccccc1-c1nc2n[nH]nc2c(=O)[nH]1 :: inactive

What does the data say about its fluorescence, % of triamterene? Entry: `C=C(C)C(=O)NCCCN(C)C`
inactive

====

# TARGET_ENTITY: Cytochrome P450 2D6 (Homo sapiens) (UniProt P10635)
# Sequence (P10635 whole entry, looked up): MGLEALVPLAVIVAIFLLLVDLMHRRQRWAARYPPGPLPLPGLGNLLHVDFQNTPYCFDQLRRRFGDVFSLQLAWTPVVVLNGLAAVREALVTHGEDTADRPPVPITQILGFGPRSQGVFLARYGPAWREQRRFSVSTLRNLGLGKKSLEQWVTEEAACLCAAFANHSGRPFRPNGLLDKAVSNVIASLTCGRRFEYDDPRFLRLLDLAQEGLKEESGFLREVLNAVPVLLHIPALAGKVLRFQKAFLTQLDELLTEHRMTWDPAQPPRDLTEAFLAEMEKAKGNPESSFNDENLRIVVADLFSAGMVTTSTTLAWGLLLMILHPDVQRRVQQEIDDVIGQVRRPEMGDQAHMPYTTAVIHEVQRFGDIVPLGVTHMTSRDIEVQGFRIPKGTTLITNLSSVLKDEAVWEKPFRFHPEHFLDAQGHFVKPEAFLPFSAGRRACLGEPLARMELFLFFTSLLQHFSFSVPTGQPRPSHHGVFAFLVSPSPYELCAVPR
# ASSAY_OVERVIEW: Cytochrome P450 Family 2 Subfamily D Member 6 (CYP2D6) small molecule antagonists: luciferase reporter qHTS assay (AID 1671196); also: nearly all actives have a fitted effect of over 50% in size; also: potency is read from the fitted curve at half-maximal effect
# RUN_PARAMETERS: P450-Glo CYP2D6 enzyme assay, luciferin luminescence, 1 h; series mostly up to 115 µM
Records with an inconclusive call do not appear. Activity calls are given as the source filed them. The call rests on the fitted dose curve; in most records, active means well fitted inhibition curve with a large enough effect in the repeat runs; inconclusive means weak or mixed curves; inactive means no such curve, though single readings can be large or run the other way.
READOUT_TYPE: Potency

These recorded examples may help you get a feel for the data.
CCCCCCCCC=O :: inactive
CC(C=O)Cc1ccc(C(C)C)cc1 (configuration not stated) :: inactive
Nc1cc(N)cc(C(=O)O)c1 :: 35.6 µM (active)
CC(O)CN(CCCN(C)C)CCCN(C)C (configuration not stated) :: inactive
O=C1OC(=O)c2cc([N+](=O)[O-])ccc21 :: 35.5 µM (active)
O=C(O)CCNC(=O)c1ccc(N=Nc2ccc(O)c(C(=O)O)c2)cc1 :: inactive

Give its Potency value. Item: `CO[Si](CCCNCCC[Si](OC)(OC)OC)(OC)OC`
inactive

====

# ASSAY_OVERVIEW: qHTS assay to identify small molecule agonists of the NFkB signaling pathway - cell viability counter screen (AID 1159515); also: % is scaled to controls: 0 for no effect and ±100 for the full control effect; nearly all actives have a fitted effect of over 55% in size
# RUN_PARAMETERS: NFkB-bla ME-180 viability, CellTiter-Glo luminescence, 5 h; series mostly up to 61 µM
Records with an inconclusive call do not appear. Activity calls are given as the source filed them. Calls follow the shape of the full dose curve.
READOUT_TYPE: outcome

COc1cc(CCC(C)=O)ccc1O :: inactive
c1cc(CN2CCCCC2)cc(OCCCNc2nc3ccccc3s2)c1 :: inactive
CC1=CC(C)C(C=O)C(C)C1 (stereo not given) :: inactive
CC/C=C\CCCCO :: inactive
COCCOC(=O)CC#N :: inactive
C=C(C)[C@H]1CC=C(C)CC1 :: inactive
OCC(CO)(CO)COCC(CO)(CO)CO :: inactive
NC(=O)CCCCC1CCSS1 (stereo not given) :: inactive

Bench note: what outcome did `Nc1ncnc2c1ncn2Cc1c(F)cccc1Cl` show?
inactive

Consider the compound shown here: `CC/C=C\C#N` What is its recorded outcome?
inactive

Quick one: outcome of `CC(=O)N[C@@H](CCC(N)=O)C(=O)O` ?
inactive

Return reported outcome; argument: `NCCN1CCNC1=O`
inactive

What outcome value was documented for this compound, COC(C(=O)O)c1ccccc1 (stereo not given) ?
inactive

Which outcome value is on record for `OC/C=C/c1ccccc1` ?
inactive

Which outcome is listed for Cc1cc(C)cc(OCC2CNC(=O)O2)c1 (stereo not given) ?
inactive

Param item = C=C(C)C1CC=C(C)C(O)C1 (stereo not given) ; retrieve measured outcome.
inactive

====

Assignment: determine reported max response for the given compounds.
# ASSAY_OVERVIEW: qHTS RealTime-Glo MT Cell Viability Assay in HEK293 cells - 40 hour (AID 1224874); also: % is scaled to controls: 0 for no effect and ±100 for the full control effect; nearly all actives have a fitted effect of over 50% in size
# RUN_PARAMETERS: RealTime-Glo luminescence; stronger effect = lower value
Inconclusive results are not listed.
Use % as the unit, but write only the number.

max response for `Cc1ncc(CSSCc2cnc(C)c(O)c2CO)c(CO)c1O` ?
5.83

What does the data say about its max response? Entry: COC(=O)C1=C(C)NC(C)=C(C(=O)OCC(C)=O)C1c1ccccc1[N+](=O)[O-] (configuration not stated)
-9.05

# input compound: `CNC(=O)c1c(I)c(NC(=O)CCCCC(=O)Nc2c(I)c(C(=O)O)c(I)c(C(=O)NC)c2I)c(I)c(C(=O)O)c1I` ; wanted: its max response
-0.381

Give its max response value. Item: `NC1CCN(c2cccc(Cl)n2)CC1`
-1.03

Consider the compound `NC(=O)c1c(Cl)cccc1Cl` and give its measured max response.
-0.288

Quick one: max response of `COc1ccc2cc(C=O)ccc2c1` ?
2.85

Name the recorded max response for `O=C(O)c1ccccc1S` .
-0.793

What max response value was documented for this compound, `c1ccc2cnncc2c1` ?
12.8

Data request, read-out max response, for `COc1cc(CCC(C)=O)ccc1O`
-0.231

Field request: max response | item: `Nc1nc2c(ncn2CCC(CO)CO)c(=O)[nH]1`
0.17

# query: max response of entry `CCCCCCOC(=O)c1ccccc1O`
-8.04

State the recorded max response for this entry: CCCCCN(CCCCC)C(=O)C(CCC(=O)O)NC(=O)c1ccc(Cl)c(Cl)c1 (configuration not stated)
-6.43

Can you share its max response? I mean this compound: `CC(C)(O)c1ccccc1`
-10.8

Please give the measured max response for this compound: CC(C=O)Cc1ccc(C(C)C)cc1 (configuration not stated)
18.5

# max response lookup, item `NC(=S)Nc1cccc2ccccc12`
16.5

Consider the compound C1C2OC2C2C1C1CC2C2OC12 (configuration not stated) and give its measured max response.
2.43

Would you kindly share the measured max response for `Cn1cnc2c(=O)[nH]c(N)nc21` ?
15.1

Give the measured max response of `O=C1OC(=O)c2cc([N+](=O)[O-])ccc21` .
13

Entry `CCOC(=O)Cn1c(=O)sc2cccc(Cl)c21` : reported max response = ?
-10.9

Sample CCCCCCCCCCCCCCCCCCOCC(O)CO (configuration not stated) — what was its max response?
-20.9

Could you tell me which max response is on file for `C(=C(c1ccccc1)c1ccccc1)c1ccccc1` ?
7.28

Entry `N[C@@H](CS)C(=O)O` : reported max response = ?
9.81

// query max response value for entry `CCCCCCCCCCCCCCCCCC(=O)OCCCCCCCCCCCCCC(C)C`
1.07

I would be grateful if you could share the reported max response for `CC(C)(O)C(=O)c1ccc(OCCO)cc1` .
6.03

Would you mind telling me what max response value was observed for CN1[C@@H]2CC[C@H]1CC(NC(=O)n1c(=O)[nH]c3ccccc31)C2 (some centres not stated) ?
-2.86

# input compound: `CCN(CC)C(=O)c1ccc(O)c(OC)c1` ; wanted: its max response
1.73

max response lookup needed for `Cn1ccc2cc3c(cc21)CCN3C(=O)Nc1cccnc1` , thanks.
-5.83

Which max response value belongs to `CCCCCOC(=O)Nc1nc(=O)n([C@@H]2O[C@H](C)[C@@H](O)[C@H]2O)cc1F` ?
7

What value of max response has been recorded for this entry: `O=C(O)c1cccc(C(=O)O)n1`
-0.906

What value of max response has been recorded for this entry: `CCCc1ccc(N)cc1`
-1.79

What does the record list as max response for `Fc1ccccc1-c1ccccc1` ?
-21.5

Find the recorded max response belonging to `OCc1ccccn1` and report it.
11.2

State the recorded max response for this entry: CC1=CC(C)C(C=O)C(C)C1 (configuration not stated)
4.71

What max response value was documented for this compound, CCCCCCC(CCCCCCCCCCC(=O)OCC(COC(C)=O)OC(C)=O)OC(C)=O (configuration not stated) ?
14.5

Can you share its max response? I mean this compound: `Cc1ccccc1Br`
5.36

Would you kindly share the measured max response for `CCO[Si](C)(OCC)OCC` ?
3.57

max response for `Nc1nc(F)nc2c1ncn2[C@@H]1O[C@H](CO)[C@@H](O)[C@@H]1O` ?
-1.6

I would be grateful if you could share the reported max response for `O=C(O)C1CCC1` .
-0.0608

If you can, please state the reported max response value of `COc1cc(O)cc(O)c1` .
2.03

Would you kindly share the measured max response for `COc1cc(C)cc(O)c1` ?
-14.5

Find the recorded max response belonging to `CN(C)N=Nc1ccccc1` and report it.
15

I have this compound here, `COC(=O)[C@H]1[C@H]2C[C@@H]3c4[nH]c5cc(OC)ccc5c4CCN3C[C@H]2C[C@@H](OC(=O)COc2ccc(OC)cc2)[C@@H]1OC` , and I need its recorded max response.
6.2

Request the reported max response associated with `COc1nc(C)nc(N)n1`
-1.44

If you can, please state the reported max response value of `Oc1ccc2c(c1)OC[C@@H](N1CCC(O)(c3ccc(F)cc3)CC1)[C@H]2O` .
-13.9

Requested field: max response. Item: `COCCOC(=O)CC#N`
1.9

I have this compound here, `O=C(O)/C=C/c1ccc(Cn2ccnc2)cc1` , and I need its recorded max response.
2.89

Would you kindly share the measured max response for CC(=O)NC(Cc1ccccc1)C(=O)O (configuration not stated) ?
5.56

Quick check: max response of `NC(=O)Nc1nc2ccccc2[nH]1` ?
-25.5

Consider the compound shown here: `O=c1[nH]c(=O)n([C@H]2O[C@H](CO)[C@@H](O)[C@@H]2O)cc1/C=C\Br` What is its recorded max response?
3.79

For the compound `CC(C)=CCC/C(C)=C/C(=O)O` , what max response is on record?
0.0826

Could you tell me which max response is on file for `OCC(CO)(CO)COCC(CO)(CO)CO` ?
9.54

For the compound shown here, CCC(C)OC(=O)N1CCCCC1CCO (configuration not stated) , give the reported max response.
-15.9

Which max response value belongs to `CC(C)CCCCCCN` ?
-7.14

Name the reported max response value associated with the compound `CC(C)N1C(=O)c2ccccc2C1=O`
4.79

So what does the record say about max response for `C=CC(=O)OCCCCCC` ?
-6.6

State the recorded max response for this entry: `OCCCCCCO`
-17.6

What value of max response has been reported for the following compound? C#CC(C)(O)CC(C)C (configuration not stated)
22.3
